Recorded phospho-S6 immunofluorescence (z-score), one value per entry.
Test system: MDA-MB-468
Assay: phospho-S6 immunofluorescence (DAPI-normalised), per-plate z-score; higher = higher phospho-S6 signal (less pathway suppression)
Details: co-treatment: lapatinib 1 uM; 24 h
Structures can show the parent of a compound that is named as a salt.

Study these solved cases before continuing.
• CN1[C@@H]2CC[C@H]1C[C@@H](OC(=O)C(CO)c1ccccc1)C2 (some centres undefined) [Atropine (sulfate monohydrate)] (compound 10 µM) = -0.18
• NCC(O)c1ccc(O)cc1 (centres undefined) [Octopamine (hydrochloride)] (compound 10 µM) = 0.86
• CSCC[C@H](NC(=O)[C@H](Cc1ccccc1)NC(=O)CNC(=O)CNC(=O)[C@@H](N)Cc1ccc(O)cc1)C(=O)O (compound 10 µM) = -0.12

Now look at this one.
Field request: phospho-S6 immunofluorescence (z-score) | item: CCC1(c2cccc(O)c2)CCCCN(C)C1 (centres undefined) [Meptazinol (hydrochloride)] (compound 10 µM)
0.25

* * *

System: MDA-MB-468
Test: phospho-S6 immunofluorescence (DAPI-normalised), per-plate z-score; higher = higher phospho-S6 signal (less pathway suppression)
Conditions: co-treatment: vehicle; 24 h
Counter-ions that a name gives are not always drawn.
Recorded phospho-S6 immunofluorescence (z-score), one value per entry.
Give the figure only, with no unit attached.

- CO[C@]12C[C@@H](COC(=O)c3cncc(Br)c3)CN(C)[C@@H]1Cc1cn(C)c3cccc2c13 [Nicergoline] (compound 10 µM): -0.38
- CNCC(=O)c1ccc(O)c(O)c1 [Adrenalone (hydrochloride)] (compound 10 µM): 0.39
- CN1CCC2=C(C1)c1ccccc1Cc1ccccc12 [Setiptiline] (compound 10 µM): -0.24

Lab note: need phospho-S6 immunofluorescence (z-score) with MDA-MB-468 for entry COc1ccc2[nH]cc(C3=CCNCC3)c2c1 (compound 10 µM) , please look it up.
-0.11

Lab note: need phospho-S6 immunofluorescence (z-score) with MDA-MB-468 for entry CC(C)C[C@H](NC(=O)[C@H](Cc1ccccc1)NC(=O)CNC(=O)[C@@H](C)NC(=O)[C@@H](N)Cc1ccc(O)cc1)C(=O)O [[D-Ala2]leucine-enkephalin] (compound 10 µM) , please look it up.
1.34

* * *

Tested on: MDA-MB-468
Assay: phospho-S6 immunofluorescence (DAPI-normalised), per-plate z-score; higher = higher phospho-S6 signal (less pathway suppression)
Details: co-treatment: GDC0941 450 nM; 24 h
Structures can show the parent of a compound that is named as a salt.
parameter: phospho-S6 immunofluorescence (z-score)
Give the figure only, with no unit attached.

Study these solved cases before continuing.
- COC(=O)C1=CCCN(C)C1 [Arecoline (hydrobromide)] (compound 10 µM): 0.22
- Cc1ccc2c(c1)C1(CCN(CCc3nc(-c4ccccc4)oc3C)CC1)OC(=O)N2 (compound 10 µM): 0.56
- O=C(O[C@H]1C[C@H]2CC[C@@H](C1)[N+]21CCCC1)C(O)(c1ccccc1)c1ccccc1 [Trospium (chloride)] (compound 10 µM): -0.76

Lab note: need phospho-S6 immunofluorescence (z-score) with MDA-MB-468 for entry O=C1Nc2ccccc2C2(CCN(CCc3ccc(C(F)(F)F)cc3)CC2)O1 (compound 10 µM) , please look it up.
-3.3

* * *

System: MDA-MB-468
Experiment: phospho-S6 immunofluorescence (DAPI-normalised), per-plate z-score; higher = higher phospho-S6 signal (less pathway suppression)
Conditions: co-treatment: GDC0941 450 nM; 24 h
Counter-ions that a name gives are not always drawn.
Lab note: anything with phospho-S6 immunofluorescence (z-score) at or over 0.08 counts as Fulfilled; the rest go in Not fulfilled.

Examples with answers:
• CN(C)CCN(C)CCc1ccc(Cl)c(Cl)c1 [BD-1047 (dihydrobromide)] (compound 10 µM) = Fulfilled
• CN1CCC(C(=O)c2cccc(NC(=O)c3c(F)cc(F)cc3F)n2)CC1 [Lasmiditan (hydrochloride)] (compound 10 µM) = Not fulfilled
• O=C(C[S+]([O-])C(c1ccccc1)c1ccccc1)NO (stereo not given) [Adrafinil] (compound 10 µM) = Not fulfilled
• CNCC(O)c1ccc(O)cc1 (stereo not given) [Synephrine (hydrochloride)] (compound 10 µM) = Fulfilled
• C[C@@H]1CN(Cc2ccc(F)cc2)CCN1C(=O)COc1ccc(Cl)cc1NC(N)=O (compound 10 µM) = Not fulfilled

Quick check: does CN1C(=O)COc2c(C(=O)NC3CN4CCC3CC4)cc(Cl)cc21 (stereo not given) [Azasetron (hydrochloride)] (compound 10 µM) have phospho-S6 immunofluorescence (z-score) greater than or equal to 0.08?
Fulfilled

Quick check: does Cc1c(C(=O)c2cccc3ccccc23)c2cccc3c2n1[C@H](CN1CCOCC1)CO3 [WIN 55,212-2 (Mesylate)] (compound 10 µM) have phospho-S6 immunofluorescence (z-score) greater than or equal to 0.08?
Not fulfilled

Quick check: does C=CCN1C[C@H](C(=O)N(CCCN(C)C)C(=O)NCC)C[C@@H]2c3cccc4[nH]cc(c34)C[C@H]21 [Cabergoline] (compound 10 µM) have phospho-S6 immunofluorescence (z-score) greater than or equal to 0.08?
Fulfilled

Quick check: does COc1cc2c3c(c1OC)-c1ccccc1C[C@H]3N(C)CC2 [Nuciferine] (compound 10 µM) have phospho-S6 immunofluorescence (z-score) greater than or equal to 0.08?
Fulfilled

Quick check: does Cc1ccc2c(c1)[C@]13CCCC[C@@H]1[C@H](C2)N(C)CC3 [Dimemorfan (phosphate)] (compound 10 µM) have phospho-S6 immunofluorescence (z-score) greater than or equal to 0.08?
Fulfilled

Quick check: does COc1ccc2c(c1)[nH]c1c(C)nccc12 [Harmine] (compound 10 µM) have phospho-S6 immunofluorescence (z-score) greater than or equal to 0.08?
Not fulfilled

Quick check: does Cc1cccc(Cc2c[nH]cn2)c1C [Detomidine (hydrochloride)] (compound 10 µM) have phospho-S6 immunofluorescence (z-score) greater than or equal to 0.08?
Not fulfilled

Quick check: does CN1[C@@H]2C[C@@H](OC(=O)[C@H](CO)c3ccccc3)C[C@H]1[C@@H]1O[C@@H]12 [Scopolamine (hydrobromide)] (compound 10 µM) have phospho-S6 immunofluorescence (z-score) greater than or equal to 0.08?
Not fulfilled

Quick check: does CN1[C@@H]2CC[C@H]1C[C@@H](OC(=O)C(CO)c1ccccc1)C2 (stereo not given in full) [Atropine (sulfate monohydrate)] (compound 10 µM) have phospho-S6 immunofluorescence (z-score) greater than or equal to 0.08?
Not fulfilled
